Source of measurements: PubChem BioAssay

Assay: inhibitors of the yeast RAM network, pilot screen, dse1pr::URA3 reporter, 5-FOA selection (AID 869);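 note: RAM network block rescues cells from 5-FOA so hits raise OD615 growth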
Details: S. cerevisiae dse1pr::URA3 5-FOA growth, OD615, 2 d; at 10 µM; stronger effect = higher value; strain carries analog-sensitive mutant Cbk1 kinase
Short version: inhibition at least 1% is true, less is false.

query: Test whether the compound Cc1cc(C)nc(SCSc2nc(C)cc(C)n2)n1 records inhibition of 1% or higher.
result: true

query: Test whether the compound CCOC(=O)C1CCN(C(=O)c2ccc(NC(=O)C3CCCO3)cc2)CC1 (stereo unspecified) records inhibition of 1% or higher.
result: true

query: Test whether the compound COc1ccc(C(=O)/C(C)=N/O)cc1OC records inhibition of 1% or higher.
result: true

query: Test whether the compound CCOC(=O)CCc1n[nH]c(=O)[nH]c1=O records inhibition of 1% or higher.
result: true

query: Test whether the compound CCCn1cc(S(=O)(=O)CC(=O)N2CCc3ccccc32)c2ccccc21 records inhibition of 1% or higher.
result: true

query: Test whether the compound O=C1CCCCCN1CP(=O)(O)CCc1ccccc1 records inhibition of 1% or higher.
result: true

query: Test whether the compound CCOC(=O)CNC(=O)CSc1nnc(-c2ccco2)n1Cc1ccco1 records inhibition of 1% or higher.
result: false

query: Test whether the compound c1ccc(-c2ccccc2-n2cnnn2)cc1 records inhibition of 1% or higher.
result: true

query: Test whether the compound CC(C)Cn1c(SCC#N)nc2ccccc2c1=O records inhibition of 1% or higher.
result: true

query: Test whether the compound Cc1ccc(S(=O)(=O)/N=C(/Nc2nc(C)cc(C)n2)N2CCOCC2)cc1 records inhibition of 1% or higher.
result: true

query: Test whether the compound CCOC(=O)N1CCN(Cc2nc3c(c(=O)n(C)c(=O)n3C)n2CCC(C)C)CC1 records inhibition of 1% or higher.
result: false

query: Test whether the compound Cc1c(N=C2C(=O)Nc3ccccc32)c(=O)n(-c2ccccc2)n1C records inhibition of 1% or higher.
result: false

query: Test whether the compound O=C(Nc1ccc(SC(F)F)cc1)C1=COCCO1 records inhibition of 1% or higher.
result: true

query: Test whether the compound O=C(NCc1ccccn1)c1nnc(Cc2ccc(Cl)cc2)o1 records inhibition of 1% or higher.
result: false

query: Test whether the compound O=C(CCCOc1ccccc1)n1nnc2ccccc21 records inhibition of 1% or higher.
result: false

query: Test whether the compound CC(Oc1ccc(Cl)cc1Cl)C(=O)NCc1ccncc1 (stereo unspecified) records inhibition of 1% or higher.
result: true

query: Test whether the compound O=C(Cn1cnc2c(nnn2-c2ccccc2)c1=O)NCCc1ccccc1 records inhibition of 1% or higher.
result: false

query: Test whether the compound CNC(=O)c1c(NC(=O)c2nc3ccccc3s2)sc2c1CCC2 records inhibition of 1% or higher.
result: false

query: Test whether the compound CCN1C=C(C(=O)OC)C(c2cccc(C)c2)C(C(=O)OC)=C1 records inhibition of 1% or higher.
result: true

query: Test whether the compound Cc1ccc(N=C2SCCCN2C(=O)c2ccco2)cc1Cl records inhibition of 1% or higher.
result: false

query: Test whether the compound CC(=O)N(c1ccc(C)cc1)C1C=CS(=O)(=O)C1 (stereo unspecified) records inhibition of 1% or higher.
result: false

query: Test whether the compound COc1cc(C(=O)Nc2cc(C)c(OCC(=O)N3CCOCC3)c(C)c2)cc(OC)c1OC records inhibition of 1% or higher.
result: true

query: Test whether the compound Cc1csc(NC(=O)CNS(=O)(=O)c2cccs2)n1 records inhibition of 1% or higher.
result: false

query: Test whether the compound O=C1Nc2ccccc2C(O)(C(=O)N2CCCCC2)N1c1ccccc1 (stereo unspecified) records inhibition of 1% or higher.
result: true

query: Test whether the compound Nc1c(C(=O)NCc2cccnc2)sc(=S)n1-c1ccccc1 records inhibition of 1% or higher.
result: true

query: Test whether the compound O=C(Cn1c(NCCCO)nc2ccccc21)c1cccs1 records inhibition of 1% or higher.
result: true

query: Test whether the compound Cc1ccc(C)c(NC(=O)CSc2nc3c(c(=O)n2C)SC(C)C3)c1 (stereo unspecified) records inhibition of 1% or higher.
result: false

query: Test whether the compound COc1ccc(C(CNC(=O)C2CC(=O)N(Cc3ccc(C)cc3)C2)N(C)C)cc1 (stereo unspecified) records inhibition of 1% or higher.
result: true

query: Test whether the compound Cc1c(C(=O)N(C)Cc2ccccc2)oc2ccc(S(=O)(=O)N3CCCC3)cc12 records inhibition of 1% or higher.
result: false

query: Test whether the compound COc1ccc(C)cc1NC(=O)CN(c1ccccc1)S(C)(=O)=O records inhibition of 1% or higher.
result: false

query: Test whether the compound COc1ccc(OC)c(S(=O)(=O)N2CCCCC2C(=O)N2CCN(c3ccccn3)CC2)c1 (stereo unspecified) records inhibition of 1% or higher.
result: true

query: Test whether the compound Cc1cc(NC(=O)Cn2c(=O)n(Cc3ccccc3)c(=O)c3ccccc32)no1 records inhibition of 1% or higher.
result: true

query: Test whether the compound Cc1cc(NC(=O)c2cc(C3CC3)on2)n(-c2ccccc2)n1 records inhibition of 1% or higher.
result: false

query: Test whether the compound COc1ccc(-c2cn3c(C)c(C(=O)N4CCN(c5ccc(OC)cc5)CC4)sc3n2)cc1 records inhibition of 1% or higher.
result: true

query: Test whether the compound CCN(CCNC(=O)C1CCN(c2nnc(-n3cccc3)s2)CC1)c1ccccc1 records inhibition of 1% or higher.
result: false

query: Test whether the compound CN(C)CCN(Cc1ccccc1)c1ccnc(N(C)C)c1C#N records inhibition of 1% or higher.
result: true
